- Test system: M14
- Test Description: Cytotoxicity against human M14 cells assessed as cell growth at 10 uM after 48 hrs by SRB assay relative to untreated control
- Format: functional
- Measurement Conditions: M14, 48 h, read-out: Activity
Entries and their measured growth at 10 µM follow.
Quick reminder: number only, in %, skip the unit.

Substance Smiles: C[C@@H]1NC(c2ccccc2)=Nc2nc3ccccn3c2C1=O
growth at 10 µM [%]: 99.8
--
Substance Smiles: O=C1c2c(nc3ccccn23)N=C(c2ccccc2)N2CCC[C@@H]12
growth at 10 µM [%]: 96.5
--
Substance Smiles: Cc1ccccc1C1=Nc2nc3ccccn3c2C(=O)[C@H](Cc2ccccc2)N1
growth at 10 µM [%]: 102
--
Substance Smiles: Cc1ccc(C2=Nc3nc4ccccn4c3C(=O)[C@H](C)N2)cc1
growth at 10 µM [%]: 87
--
Substance Smiles: Cc1ccc(C2=Nc3nc4ccccn4c3C(=O)[C@H](Cc3ccccc3)N2)cc1
growth at 10 µM [%]: 97.7
--
Substance Smiles: C[C@@H]1NC(c2ccc(Br)cc2)=Nc2nc3ccccn3c2C1=O
growth at 10 µM [%]: 31.8
--
Substance Smiles: C[C@H]1NC(c2ccc(Br)cc2)=Nc2nc3ccccn3c2C1=O
growth at 10 µM [%]: 99.2
--
Substance Smiles: C[C@@H]1NC(c2ccc(N(C)C)cc2)=Nc2nc3ccccn3c2C1=O
growth at 10 µM [%]: 101
--
Substance Smiles: O=C1c2c(nc3ccccn23)NC(=O)N2CCC[C@@H]12
growth at 10 µM [%]: 94.8
--
Substance Smiles: O=C1Nc2nc3ccccn3c2C(=O)[C@H](Cc2ccccc2)N1
growth at 10 µM [%]: 93

Quick one: growth at 10 µM of `Cc1ccc(C2=Nc3nc4ccccn4c3C(=O)[C@@H]3CCCN23)cc1` ?
94.8

growth at 10 µM for `COc1ccc(C2=Nc3nc4ccccn4c3C(=O)[C@H](Cc3ccccc3)N2)cc1` ?
98.3

Would you kindly share the measured growth at 10 µM for `COc1ccc(C2=Nc3nc4ccccn4c3C(=O)[C@H](C)N2)cc1` ?
95.4
